assayProcedure: Solubility and solution pressure of blowing agents in polystyrene resin, calculated with the Flory-Huggins equation
Format: physicochemical
conditionLabel: polystyrene resin, 140°C, atmospheric pressure (14.7 psia, 1 bar)
endpointName: WT% Blowing Agent Dissolves in Resin (WT%)
Quick reminder: number only, in WT%, skip the unit.

Name the recorded WT% Blowing Agent Dissolves in Resin for `FC(F)C(F)F` . 0.3

Try CC(F)(F)F [HFC-143a, 1,1,1-trifluoroethane] next. 0.1

Try CC(F)F [HFC-152a, 1,1-difluoroethane] next. 0.3

Try FCC(F)(F)F [HFC-134a, 1,1,1,2-tetrafluoroethane] next. 0.15

====

assayProcedure: Solubility and solution pressure of blowing agents in polystyrene resin, calculated with the Flory-Huggins equation
Assay type: physicochemical
conditionLabel: polystyrene resin, 200°C, atmospheric pressure (14.7 psia, 1 bar)
endpointName: WT% Blowing Agent Dissolves in Resin (WT%)
Quick reminder: number only, in WT%, skip the unit.

# annotated cases, reported WT% Blowing Agent Dissolves in Resin shown
molecule="FCC(F)(F)F [HFC-134a, 1,1,1,2-tetrafluoroethane]" endpointname="WT% Blowing Agent Dissolves in Resin" valuemeasured=0.08
molecule="CC(F)F [HFC-152a, 1,1-difluoroethane]" endpointname="WT% Blowing Agent Dissolves in Resin" valuemeasured=0.15
molecule="CC(F)(F)F [HFC-143a, 1,1,1-trifluoroethane]" endpointname="WT% Blowing Agent Dissolves in Resin" valuemeasured=0.05

Name the recorded WT% Blowing Agent Dissolves in Resin for `FC(F)C(F)F` . 0.15

====

assayProcedure: Solubility and solution pressure of blowing agents in polystyrene resin, calculated with the Flory-Huggins equation
Type: physicochemical
conditionLabel: polystyrene resin, 60°C, atmospheric pressure (14.7 psia, 1 bar)
endpointName: WT% Blowing Agent Dissolves in Resin

molecule="FCC(F)(F)F [HFC-134a, 1,1,1,2-tetrafluoroethane]" valuemeasured="0.2 WT%"

Name the recorded WT% Blowing Agent Dissolves in Resin for `FC(F)C(F)F` . 0.5 WT%

Try CC(F)(F)F [HFC-143a, 1,1,1-trifluoroethane] next. 0.08 WT%

Try CC(F)F [HFC-152a, 1,1-difluoroethane] next. 0.5 WT%

====

# WT% Blowing Agent Dissolves in Resin listing for each entry below
assayProcedure: Solubility and solution pressure of blowing agents in polystyrene resin, calculated with the Flory-Huggins equation
Type: physicochemical
conditionLabel: polystyrene resin, 180°C, atmospheric pressure (14.7 psia, 1 bar)
Method: Certain aspects of the invention are illustrated by the Figures. […] The data presented in Figures 3-6 were determined through use of the Flory-Huggins equation for phase equilibria in polymer solutions. […] These coefficients were determined by dividing the experimental blowing agent partial pressure by the saturated vapor pressure at that temperature. […]
Quick reminder: number only, in WT%, skip the unit.

# annotated cases, reported WT% Blowing Agent Dissolves in Resin shown
compound="CC(F)F [HFC-152a, 1,1-difluoroethane]" valuemeasured=0.2
compound="CC(F)(F)F [HFC-143a, 1,1,1-trifluoroethane]" valuemeasured=0.07
compound=FC(F)C(F)F valuemeasured=0.2

Turning to the following compound.
Name the recorded WT% Blowing Agent Dissolves in Resin for FCC(F)(F)F [HFC-134a, 1,1,1,2-tetrafluoroethane] . 0.1
